This collection of values is drawn from patent US9284284B2.

# Subject Of Test: UniProt P56817
# Sequence (P56817 46-457): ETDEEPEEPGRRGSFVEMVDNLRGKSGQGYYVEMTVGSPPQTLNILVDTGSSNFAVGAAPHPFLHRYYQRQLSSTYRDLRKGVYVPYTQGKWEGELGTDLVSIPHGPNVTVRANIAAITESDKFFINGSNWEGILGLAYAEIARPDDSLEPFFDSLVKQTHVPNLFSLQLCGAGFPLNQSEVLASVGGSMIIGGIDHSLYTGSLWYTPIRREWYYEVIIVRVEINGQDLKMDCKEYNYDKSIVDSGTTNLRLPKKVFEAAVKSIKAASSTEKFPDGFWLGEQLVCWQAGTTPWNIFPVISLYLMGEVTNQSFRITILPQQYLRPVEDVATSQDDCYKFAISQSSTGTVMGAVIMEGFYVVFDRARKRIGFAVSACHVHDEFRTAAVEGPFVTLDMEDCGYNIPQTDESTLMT
# Assay Details: Test 1: Inhibition of Human BACE-1
# Measurement Parameters: recombinant BACE-1, pH 4.5, fluorescence-quenched substrate
Structures can show the parent of a compound that is named as a salt.
Please assign false whenever IC50 is at or above 600 nM, and true whenever it is below.

Sample answers from the record:
* NC1=N[C@@](c2cc(Nc3nccc4cc(Br)cnc34)ccc2F)(C(F)F)COC1 | true
* NC1=N[C@@](c2cc(Nc3ncnc4cc(Cl)cnc34)ccc2F)(C(F)F)COC1 [Example 7, di-hydrochloride] | true
* C[C@@]1(c2nc(Nc3ncccc3C#N)ccc2F)CO[C@@](C)(C(F)(F)F)C(N)=N1 | false
* N#Cc1cnc2c(Nc3ccc(F)c([C@]4(C(F)F)COCC(N)=N4)c3)nccc2c1 | true
* NC1=N[C@@](c2cc(Nc3nccn4ccnc34)ccc2F)(C(F)F)COC1 | false
* COc1nccnc1Nc1ccc(F)c([C@]2(C(F)F)COCC(N)=N2)c1 | false
* NC1=N[C@@](c2cc(Nc3nccc4cc(OCCCl)cnc34)ccc2F)(C(F)F)COC1 | false
* COc1cc([N+](=O)[O-])cnc1Nc1ccc(F)c([C@]2(C(F)F)COCC(N)=N2)c1 | false
* COc1c(N)ncnc1Nc1ccc(F)c([C@]2(C(F)F)COCC(N)=N2)c1 | false
* Cn1nc(Nc2cccc(C3(C)COCC(N)=N3)c2)c2ccc(Br)cc21 (centres unmarked) | false

Query :: I'd appreciate it if you could check whether C[C@@]1(c2cc(Nc3ncnc4cc(C(F)(F)F)cnc34)ccc2F)CO[C@@](C)(C(F)(F)F)C(N)=N1 has IC50 smaller than 600 nM.
Result :: true

Query :: Next compound up: CC1(c2cccc(Nc3nsc4cc(Br)ccc34)c2)COCC(N)=N1 (centres unmarked)
Result :: false

Query :: Next compound up: COc1cc(N)cnc1Nc1ccc(F)c([C@]2(C(F)F)COCC(N)=N2)c1
Result :: false

Query :: Next compound up: COc1cnc(N)nc1Nc1ccc(F)c([C@]2(C(F)F)COCC(N)=N2)c1
Result :: false

Query :: Next compound up: NC1=NC(c2cc(NCc3cc(Br)co3)ccc2F)(C(F)F)COC1 (centres unmarked)
Result :: false

Query :: Next compound up: COc1cccnc1Nc1ccc(F)c([C@]2(C(F)F)COCC(N)=N2)c1
Result :: true
